- target-of-assay: furin, P09958;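 also: purified furin at 1:10 enzyme:substrate in 50 mM HEPES pH 7.5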
- Sequence (P09958 whole entry): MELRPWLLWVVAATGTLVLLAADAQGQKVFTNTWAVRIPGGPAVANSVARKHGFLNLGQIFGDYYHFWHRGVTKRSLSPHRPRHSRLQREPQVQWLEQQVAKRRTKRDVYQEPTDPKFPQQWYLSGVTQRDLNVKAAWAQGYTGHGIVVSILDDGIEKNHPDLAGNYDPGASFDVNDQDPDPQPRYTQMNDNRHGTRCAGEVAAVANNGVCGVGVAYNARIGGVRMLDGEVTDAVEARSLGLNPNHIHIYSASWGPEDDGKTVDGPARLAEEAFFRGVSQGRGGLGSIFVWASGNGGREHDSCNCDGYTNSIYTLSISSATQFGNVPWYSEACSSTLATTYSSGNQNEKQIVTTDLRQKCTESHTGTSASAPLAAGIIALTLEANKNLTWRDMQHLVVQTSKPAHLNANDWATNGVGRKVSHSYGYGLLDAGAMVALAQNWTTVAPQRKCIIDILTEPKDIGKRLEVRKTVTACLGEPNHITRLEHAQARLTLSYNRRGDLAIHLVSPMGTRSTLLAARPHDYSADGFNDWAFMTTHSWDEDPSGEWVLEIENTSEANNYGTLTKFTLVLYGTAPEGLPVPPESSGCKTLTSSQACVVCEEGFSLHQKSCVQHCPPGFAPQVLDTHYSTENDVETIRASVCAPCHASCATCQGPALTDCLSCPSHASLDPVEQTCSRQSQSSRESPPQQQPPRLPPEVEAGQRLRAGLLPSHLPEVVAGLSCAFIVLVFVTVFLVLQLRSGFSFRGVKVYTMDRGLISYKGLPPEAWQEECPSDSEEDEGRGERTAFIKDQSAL
- protocol: furin cleavage Z-score vs untreated control; higher = more cleavage, active = 3.5 or more, inactive = 1 or less, 8 variable residues between constant flanks
- cond: 15 min
Some of the results follow. The true hit rate is not given.
So I've got a bunch of sequences here, and I need their furin cleavage Z-score values.
Numbers only.

| residue-string | furin cleavage Z-score |
| --- | --- |
| CARRRRTALAAGNASASA [FS-2800] | 9.46 |
| CARRRRRTAIAGNASASA [FS-2080] | 6.3 |
| CALLAPITAYAGNASASA [HC673] | -1.42 |
| CAERTTPCSGAGNASASA [HC1973] | 0.759 |

Parameter requested: furin cleavage Z-score. Apply to each item below.
1. CASTDCSAHLAGNASASA [HC2511]
2. CAEVLYREFDAGNASASA [HC1010]
3. CAMWNFISGIAGNASASA [HC1043]

a:
[-1.14, -0.163, -0.163]
